assay: inhibition of endothelial tube formation, primary screen, imaging, VEGF stimulated, CD31 staining, tube area, NPC library (AID 1117340); conditions: VEGF-stimulated ADSC/ECFC co-culture, at 10 µM
Activity calls are given as the source filed them.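 The calls were made as follows: active = compound that reduces growth-factor-driven endothelial tube area in a mixed cell culture, no cutoff stated; inactive = the rest.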
Outcome (select one): y = active, n = inactive

NP(N)(=O)NC(=O)c1ccc(F)cc1; n

**Query** In this assay, the call recorded for CCOC(=O)C(c1c(O)c2ccccc2oc1=O)c1c(O)c2ccccc2oc1=O was what?
**Result** n

**Query** // query: CCC(COC(=O)c1cc(OC)c(OC)c(OC)c1)(c1ccccc1)N(C)C (stereo not drawn)
**Result** n

**Query** Okay, and CN1C2CCC(C)(C)C1CC(OC(=O)C(O)(c1cccs1)c1cccs1)C2 (stereo not drawn) ?
**Result** n

**Query** Now the compound O=C(CCCN1CCC(n2c(=O)[nH]c3ccccc32)CC1)c1ccc(F)cc1
**Result** n

**Query** And the next one, O=C1c2ccccc2C(=O)C1C(=O)C(c1ccccc1)c1ccccc1 ?
**Result** y
